METHOD DESCRIPTION: Pharmacokinetics and bioavailability in normal mice
Assay type: in vivo, mouse
MEASUREMENT SETUP: female, C57BL/6, plasma, po; mouse; sodium salt; 100 mg/kg; read-out: Bioavailability for oral administration
Where a name gives a salt, the structure may show the parent alone.
OUTCOME MEASURE: bioavailability
Write the figure, then the unit, nothing else.

Return reported bioavailability; argument: CC(C)c1ccc2oc3nc(N)c(C(=O)O)cc3c(=O)c2c1 [Amlexanox (salt), sodium salt]
41.1%

---

METHOD DESCRIPTION: Bioavailability and pharmacokinetics in normal rats
Assay type: in vivo, rat
MEASUREMENT SETUP: female, CD, iv; rat plasma; I.V.; 200 mg/kg; read-out: Vss
Where a name gives a salt, the structure may show the parent alone.
OUTCOME MEASURE: Vd (L/kg)
One number for each entry, in L/kg.

Return reported Vd; argument: CC(C)c1ccc2oc3nc(N)c(C(=O)O)cc3c(=O)c2c1 [Amlexanox (salt), sodium salt]
0.51

---

METHOD DESCRIPTION: Bioavailability and pharmacokinetics in normal rats
Type: in vivo, rat
MEASUREMENT SETUP: female, CD, rat, plasma, iv, 50 mg/kg, rat plasma; I.V.
Procedure: Female CD rats (from 200 to 250 g body weight) were obtained from Charles River Canada Inc. (St. Constant, Quebec, Canada). […] The samples were analysed by HPLC using 250×4.6 mm, Phenomenex C18 Luna, 5 micron column, 1 mL/min flow rate of mobile phase 73% of 25 mM sodium phosphate pH 7.5 and 27% acetonitrile; fluorescent deyection λexcitation=348 nm, λemission=404 nm. […]
Structures can show the parent of a compound that is named as a salt.
OUTCOME MEASURE: MRT (h)
One number for each entry, in h.

Return reported MRT; argument: CC(C)c1ccc2oc3nc(N)c(C(=O)O)cc3c(=O)c2c1 [Amlexanox (salt), sodium salt]
1.05

---

METHOD DESCRIPTION: Bioavailability and pharmacokinetics in normal rats
Assay type: in vivo, rat
MEASUREMENT SETUP: female, CD, iv; rat plasma; I.V.; 50 mg/kg; read-out: Vss
Structures can show the parent of a compound that is named as a salt.
OUTCOME MEASURE: Vd (L/kg)
Give bare numbers, in L/kg.

Return reported Vd; argument: CC(C)c1ccc2oc3nc(N)c(C(=O)O)cc3c(=O)c2c1 [Amlexanox (salt), sodium salt]
0.1

---

METHOD DESCRIPTION: Bioavailability and pharmacokinetics in normal rats
Format: in vivo, rat
MEASUREMENT SETUP: female, CD, rat, plasma, iv, 25 mg/kg, rat plasma; I.V.
Counter-ions that a name gives are not always drawn.
OUTCOME MEASURE: MRT (h)
Answers are plain numbers, in h.

Return reported MRT; argument: CC(C)c1ccc2oc3nc(N)c(C(=O)O)cc3c(=O)c2c1 [Amlexanox (salt), sodium salt]
1.87

---

METHOD DESCRIPTION: Bioavailability and pharmacokinetics in normal rats
Type: in vivo, rat
MEASUREMENT SETUP: female, CD, rat, plasma, po, 10 mg/kg, rat plasma, acid suspended in 1% methyl cellulose
OUTCOME MEASURE: AUC (ng·h/mL)
Numbers only, in ng·h/mL.

Return reported AUC; argument: CC(C)c1ccc2oc3nc(N)c(C(=O)O)cc3c(=O)c2c1
1050

---

METHOD DESCRIPTION: Bioavailability and pharmacokinetics in normal rats
Type: in vivo, rat
MEASUREMENT SETUP: female, CD, rat, plasma, iv, 200 mg/kg, rat plasma; I.V.
Where a name gives a salt, the structure may show the parent alone.
OUTCOME MEASURE: AUC (µg·h/mL)
Give bare numbers, in µg·h/mL.

Return reported AUC; argument: CC(C)c1ccc2oc3nc(N)c(C(=O)O)cc3c(=O)c2c1 [Amlexanox (salt), sodium salt]
739

---

METHOD DESCRIPTION: Bioavailability and pharmacokinetics in normal rats
Assay type: in vivo, rat
MEASUREMENT SETUP: female, CD, rat, plasma, po, 50 mg/kg, rat plasma, acid suspended in 1% methyl cellulose
OUTCOME MEASURE: Cmax (ng/mL)
Answers are plain numbers, in ng/mL.

Return reported Cmax; argument: CC(C)c1ccc2oc3nc(N)c(C(=O)O)cc3c(=O)c2c1
580

---

METHOD DESCRIPTION: Bioavailability and pharmacokinetics in normal rats
Assay type: in vivo, rat
MEASUREMENT SETUP: female, CD, rat, plasma, po, 25 mg/kg, rat plasma, acid suspended in 1% methyl cellulose
OUTCOME MEASURE: MRT (h)
Give bare numbers, in h.

Return reported MRT; argument: CC(C)c1ccc2oc3nc(N)c(C(=O)O)cc3c(=O)c2c1
11.3

---

METHOD DESCRIPTION: Bioavailability and pharmacokinetics in normal rats
Type: in vivo, rat
MEASUREMENT SETUP: female, CD, rat, plasma, po, 100 mg/kg, rat; acid; 100 mg/kg; read-out: Bioavailability for oral administration
OUTCOME MEASURE: bioavailability (%)
One number for each entry, in %.

Return reported bioavailability; argument: CC(C)c1ccc2oc3nc(N)c(C(=O)O)cc3c(=O)c2c1
2.2

---

METHOD DESCRIPTION: Pharmacokinetics and bioavailability in normal mice
Type: in vivo, mouse
MEASUREMENT SETUP: female, C57BL/6; mouse plasma; oral; 10 mg/kg
Counter-ions that a name gives are not always drawn.
OUTCOME MEASURE: AUC (ng·h/mL)
One number for each entry, in ng·h/mL.

Return reported AUC; argument: CC(C)c1ccc2oc3nc(N)c(C(=O)O)cc3c(=O)c2c1 [Amlexanox (salt), sodium salt]
19300

---

METHOD DESCRIPTION: Bioavailability and pharmacokinetics in normal rats
Assay type: in vivo, rat
MEASUREMENT SETUP: female, CD, rat, plasma, po, 10 mg/kg, rat; salt; 10 mg/kg; read-out: Bioavailability for oral administration
Where a name gives a salt, the structure may show the parent alone.
OUTCOME MEASURE: bioavailability (%)
One number for each entry, in %.

Return reported bioavailability; argument: CC(C)c1ccc2oc3nc(N)c(C(=O)O)cc3c(=O)c2c1 [Amlexanox (salt), sodium salt]
31.2

---

METHOD DESCRIPTION: Pharmacokinetics and bioavailability in normal mice
Format: in vivo, mouse
MEASUREMENT SETUP: female, C57BL/6, plasma, po; mouse; sodium salt; 10 mg/kg; read-out: Bioavailability for oral administration
Experimental: Female C57BL/6 mice were used at 6 to 7 weeks of age. The animals were given food (Purina mouse chow, Pro Lab PMH 4018, Trademark of Agway, Syracuse, N.Y., USA) and water ad libitum. […] The samples were analysed by HPLC using 250×4.6 mm, Phenomenex C18 Luna, 5 micron column, 1 mL/min flow rate of mobile phase 73% of 25 mM sodium phosphate pH 7.5 and 27% acetonitrile; fluorescent deyection λexcitation=348 nm, λemission=404 nm. […]
Where a name gives a salt, the structure may show the parent alone.
OUTCOME MEASURE: bioavailability (%)
One number for each entry, in %.

Return reported bioavailability; argument: CC(C)c1ccc2oc3nc(N)c(C(=O)O)cc3c(=O)c2c1 [Amlexanox (salt), sodium salt]
61.7

---

METHOD DESCRIPTION: Bioavailability and pharmacokinetics in normal rats
Assay type: in vivo, rat
MEASUREMENT SETUP: female, CD, rat, plasma, iv, 100 mg/kg, rat plasma; I.V.
Where a name gives a salt, the structure may show the parent alone.
OUTCOME MEASURE: Cmax
Write the figure, then the unit, nothing else.

Return reported Cmax; argument: CC(C)c1ccc2oc3nc(N)c(C(=O)O)cc3c(=O)c2c1 [Amlexanox (salt), sodium salt]
216 µg/mL

---

METHOD DESCRIPTION: Bioavailability and pharmacokinetics in normal rats
Format: in vivo, rat
MEASUREMENT SETUP: female, CD, rat, plasma, iv, 100 mg/kg, rat plasma; I.V.
Counter-ions that a name gives are not always drawn.
OUTCOME MEASURE: half-life

Return reported half-life; argument: CC(C)c1ccc2oc3nc(N)c(C(=O)O)cc3c(=O)c2c1 [Amlexanox (salt), sodium salt]
45 min

---

METHOD DESCRIPTION: Bioavailability and pharmacokinetics in normal rats
Format: in vivo, rat
MEASUREMENT SETUP: female, CD, rat, plasma, po, 25 mg/kg, rat; acid; 25 mg/kg; read-out: Bioavailability for oral administration
OUTCOME MEASURE: bioavailability (%)
Numbers only, in %.

Return reported bioavailability; argument: CC(C)c1ccc2oc3nc(N)c(C(=O)O)cc3c(=O)c2c1
2.9

---

METHOD DESCRIPTION: Bioavailability and pharmacokinetics in normal rats
Assay type: in vivo, rat
MEASUREMENT SETUP: female, CD, rat, plasma, iv, 10 mg/kg, rat plasma; I.V.
Protocol: Female CD rats (from 200 to 250 g body weight) were obtained from Charles River Canada Inc. (St. Constant, Quebec, Canada). […] The samples were analysed by HPLC using 250×4.6 mm, Phenomenex C18 Luna, 5 micron column, 1 mL/min flow rate of mobile phase 73% of 25 mM sodium phosphate pH 7.5 and 27% acetonitrile; fluorescent deyection λexcitation=348 nm, λemission=404 nm. […]
Where a name gives a salt, the structure may show the parent alone.
OUTCOME MEASURE: half-life (min)
Answers are plain numbers, in min.

Return reported half-life; argument: CC(C)c1ccc2oc3nc(N)c(C(=O)O)cc3c(=O)c2c1 [Amlexanox (salt), sodium salt]
31.2
